# EXPERIMENTAL_PROTOCOL: Clinical test in humans, single 30-min i.v. infusion, plasma PK
# Assay type: in vivo
# RUN_PARAMETERS: human, in vivo, iv, 25 ug/kg, single 30-min i.v. infusion 25 μg/kg, GM
Ends that are not written are not given here.
ENDPOINT: clearance (mL/min/kg)
Dear colleague, please return just the value in mL/min/kg, with no unit written.

The reported clearance of the substance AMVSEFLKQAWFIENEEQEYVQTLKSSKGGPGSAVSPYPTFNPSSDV-NH2 [Peptide 1] was 2

====

# EXPERIMENTAL_PROTOCOL: Clinical test in humans, single 30-min i.v. infusion, plasma PK
# Type: in vivo
# RUN_PARAMETERS: human, in vivo, iv, 25 ug/kg, single 30-min i.v. infusion 25 μg/kg, GM
Ends that are not written are not given here.
ENDPOINT: AUC(0-inf) (ng·h/mL)
Dear colleague, please return just the value in ng·h/mL, with no unit written.

The reported AUC(0-inf) of the substance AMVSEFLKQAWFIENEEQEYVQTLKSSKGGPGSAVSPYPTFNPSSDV-NH2 [Peptide 1] was 211

====

# EXPERIMENTAL_PROTOCOL: 14-day repeat dose IV toxicity study with toxicokinetic evaluation on Day 1 and Day 14 in rats
# Type: in vivo, Wistar rats
# RUN_PARAMETERS: rat, in vivo, iv, 3 mg/kg/day, IV 3.0 mg/kg/day, male, Day 1, read-out: AUC0-∞ (converted)
Ends that are not written are not given here.
ENDPOINT: AUC(0-inf)

The reported AUC(0-inf) of the substance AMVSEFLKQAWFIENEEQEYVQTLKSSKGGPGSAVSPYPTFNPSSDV-NH2 [Peptide 1] was 2280 ng·h/mL

====

# EXPERIMENTAL_PROTOCOL: 14-day repeat IV dose toxicity study with toxicokinetic evaluation on Day 1 and 14 in dogs
# Format: in vivo, beagle dogs
# RUN_PARAMETERS: dog, in vivo, iv, 10 mg/kg/day, IV 10 mg/kg/day, male, Day 14, read-out: T1/2
Ends that are not written are not given here.
ENDPOINT: half-life (min)
Dear colleague, please return just the value in min, with no unit written.

The reported half-life of the substance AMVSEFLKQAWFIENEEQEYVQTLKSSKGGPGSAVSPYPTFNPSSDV-NH2 [Peptide 1] was 6

====

# EXPERIMENTAL_PROTOCOL: Clinical test in humans, three 30-min i.v. infusions 8 hours apart, plasma PK
# Assay type: in vivo
# RUN_PARAMETERS: human, in vivo, iv, 140 ug/kg, three 30-min i.v. infusions 8 h apart, 140 μg/kg each, mean, read-out: AUC0-t2
Ends that are not written are not given here.
ENDPOINT: AUC (ng·h/mL)
Dear colleague, please return just the value in ng·h/mL, with no unit written.

The reported AUC of the substance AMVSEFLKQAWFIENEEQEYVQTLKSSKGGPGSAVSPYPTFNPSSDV-NH2 [Peptide 1] was 1870

====

# EXPERIMENTAL_PROTOCOL: Clinical test in humans, single 30-min i.v. infusion, plasma PK
# Format: in vivo
# RUN_PARAMETERS: human, in vivo, iv, 150 ug/kg, single 30-min i.v. infusion 150 μg/kg, GM
Ends that are not written are not given here.
ENDPOINT: Cmax (ng/mL)
Dear colleague, please return just the value in ng/mL, with no unit written.

The reported Cmax of the substance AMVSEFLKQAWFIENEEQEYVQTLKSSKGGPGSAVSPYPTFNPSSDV-NH2 [Peptide 1] was 1250

====

# EXPERIMENTAL_PROTOCOL: Clinical test in humans, three 30-min i.v. infusions 8 hours apart, plasma PK
# Format: in vivo
# RUN_PARAMETERS: human, in vivo, iv, 200 ug/kg, three 30-min i.v. infusions 8 h apart, 200 μg/kg each, GM, read-out: AUC0-t3
Ends that are not written are not given here.
ENDPOINT: AUC (ng·h/mL)
Dear colleague, please return just the value in ng·h/mL, with no unit written.

The reported AUC of the substance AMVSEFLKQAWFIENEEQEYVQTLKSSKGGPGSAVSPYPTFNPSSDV-NH2 [Peptide 1] was 2690

====

# EXPERIMENTAL_PROTOCOL: Clinical test in humans, single 30-min i.v. infusion, plasma PK
# Type: in vivo
# RUN_PARAMETERS: in vivo, iv; human, single 30-min i.v. infusion, all subjects (time of the end of infusion)
Ends that are not written are not given here.
ENDPOINT: Tmax (min)
Dear colleague, please return just the value in min, with no unit written.

The reported Tmax of the substance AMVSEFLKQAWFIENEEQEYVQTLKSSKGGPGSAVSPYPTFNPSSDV-NH2 [Peptide 1] was 30

====

# EXPERIMENTAL_PROTOCOL: Clinical test in humans, three 30-min i.v. infusions 8 hours apart, plasma PK
# Type: in vivo
# RUN_PARAMETERS: human, in vivo, iv, 100 ug/kg, three 30-min i.v. infusions 8 h apart, 100 μg/kg each, GM, read-out: Global Cmax
Ends that are not written are not given here.
ENDPOINT: Cmax
Put down the number, then write its unit next to it.

The reported Cmax of the substance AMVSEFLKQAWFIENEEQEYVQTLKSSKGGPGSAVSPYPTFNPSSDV-NH2 [Peptide 1] was 1020 ng/mL

====

# EXPERIMENTAL_PROTOCOL: 14-day repeat dose IV toxicity study with toxicokinetic evaluation on Day 1 and Day 14 in rats
# Format: in vivo, Wistar rats
# RUN_PARAMETERS: rat, in vivo, iv, 3 mg/kg/day, IV 3.0 mg/kg/day, female, Day 1, read-out: AUC0-∞ (converted)
Ends that are not written are not given here.
ENDPOINT: AUC(0-inf) (ng·h/mL)
Dear colleague, please return just the value in ng·h/mL, with no unit written.

The reported AUC(0-inf) of the substance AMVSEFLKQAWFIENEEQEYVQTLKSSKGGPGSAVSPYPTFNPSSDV-NH2 [Peptide 1] was 2870

====

# EXPERIMENTAL_PROTOCOL: 14-day repeat IV dose toxicity study with toxicokinetic evaluation on Day 1 and 14 in dogs
# Type: in vivo, beagle dogs
# RUN_PARAMETERS: dog, in vivo, iv, 10 mg/kg/day, IV 10 mg/kg/day, male, Day 1, read-out: T1/2
Ends that are not written are not given here.
ENDPOINT: half-life (min)
Dear colleague, please return just the value in min, with no unit written.

The reported half-life of the substance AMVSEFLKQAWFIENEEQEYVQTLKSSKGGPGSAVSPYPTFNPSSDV-NH2 [Peptide 1] was 5.09

====

# EXPERIMENTAL_PROTOCOL: Clinical test in humans, single 30-min i.v. infusion, plasma PK
# Assay type: in vivo
# RUN_PARAMETERS: human, in vivo, iv, single 30-min i.v. infusion 400 μg/kg, mean
Ends that are not written are not given here.
ENDPOINT: clearance

The reported clearance of the substance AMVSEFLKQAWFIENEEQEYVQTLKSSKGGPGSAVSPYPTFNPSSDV-NH2 [Peptide 1] was ~1.33 mL/min/kg

====

# EXPERIMENTAL_PROTOCOL: Clinical test in humans, three 30-min i.v. infusions 8 hours apart, plasma PK
# Format: in vivo
# RUN_PARAMETERS: human, in vivo, iv, 50 ug/kg, three 30-min i.v. infusions 8 h apart, 50 μg/kg each, GM, read-out: AUC0-t2
Ends that are not written are not given here.
ENDPOINT: AUC (ng·h/mL)
Dear colleague, please return just the value in ng·h/mL, with no unit written.

The reported AUC of the substance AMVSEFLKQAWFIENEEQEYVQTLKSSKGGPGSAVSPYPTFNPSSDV-NH2 [Peptide 1] was 416

====

# EXPERIMENTAL_PROTOCOL: 14-day repeat dose IV toxicity study with toxicokinetic evaluation on Day 1 and Day 14 in rats
# Assay type: in vivo, Wistar rats
# RUN_PARAMETERS: rat, in vivo, iv, 3 mg/kg/day, IV 3.0 mg/kg/day, female, Day 1
# Experimental: Peptide 1 in blood samples collected from animals used in the studies (rat and dog) has been measured by an LC-MS/MS method. Analysis of samples collected in the pharmacokinetic study in rats was performed prior to validation of the method. Prior to analysis of samples from the GLP toxicology studies, the method was validated according to GLP to ensure that it is selective, accurate, reproducible, and able to produce reliable results. […]
Ends that are not written are not given here.
ENDPOINT: C0 (ng/mL)
Dear colleague, please return just the value in ng/mL, with no unit written.

The reported C0 of the substance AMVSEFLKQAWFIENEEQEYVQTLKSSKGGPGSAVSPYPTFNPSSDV-NH2 [Peptide 1] was 30600

====

# EXPERIMENTAL_PROTOCOL: Clinical test in humans, three 30-min i.v. infusions 8 hours apart, plasma PK
# Type: in vivo
# RUN_PARAMETERS: human, in vivo, iv, three 30-min i.v. infusions 8 h apart, 250 μg/kg each, GM, after the last infusion
Ends that are not written are not given here.
ENDPOINT: half-life

The reported half-life of the substance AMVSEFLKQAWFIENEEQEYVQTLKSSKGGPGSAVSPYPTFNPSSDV-NH2 [Peptide 1] was ~2 h
